Value source: patent US5447942A

- System: acetylcholine induced bronchoconstriction
- ASSAY: inhibition of acetylcholine induced bronchoconstriction, Konzett and Rossler method (Table B)
- Assay type: in vivo, Male Hartley Guinea Pigs
- EXPERIMENTAL_CONTEXT: Cavia porcellus, 0.5 h; 0.42 μmol/kg, IV; 30 mn; read-out: bronchoconstriction protection, score 30 mn

# COMPOUND, inhibition in vivo at 0.42 µmol/kg
records = [
    ("COc1cc([C@H]2CC[C@H](CNCC(O)c3ccc(O)c(CO)c3)O2)cc(OC)c1OC (relative stereo) [Example 2 (trans)]", "> 75%"),
    ("CC(C)(C)NCC(O)c1ccc(O)c(CO)c1 (stereo not shown) [Salbutamol, reference compound]", "< 20%"),
    ("OCc1cc(C(O)CNCC2CCC(c3ccncc3)O2)ccc1O (stereo not shown) [Example 12]", "20 to 50%"),
    ("COc1cc([C@H]2CC[C@H](CCCNCC(O)c3ccc(O)c(CO)c3)O2)cc(OC)c1OC (relative stereo) [Example 15 (trans)]", "< 20%"),
]

====

- ASSAY_SYSTEM: α, receptor
- ASSAY: binding α receptor
pKi: −log10 of the molar value.
ATTRIBUTE_MEASURED: pKi

# MOLECULE, ATTRIBUTE_MEASURED, REPORTED_VALUE
rows = [
    ("COc1cc([C@H]2CC[C@@H](CNCC(O)c3ccc(O)c(CO)c3)O2)cc(OC)c1OC (relative stereo) [Example 2 (cis)]", "pKi", 7.21),
]

====

- ASSAY_SYSTEM: β adrenoceptors
- ASSAY: radioligand binding studies in lung membrane (Table A, binding affinity)
pKi: −log10 of the molar value.

# COMPOUND, ASSAY_SYSTEM, pKi
rows = [
    ("OCc1cc(C(O)CNCC2CCC(c3ccccc3F)O2)ccc1O (stereo not shown)", "β adrenoceptors", 5.74),
    ("COc1cc(C2CCC(CNCC(O)c3ccc(O)c(CO)c3)O2)cc(OC)c1OC (single isomer, unassigned) [Example 2 (trans) (+)]", "β adrenoceptors", 7.30),
    ("OCc1cc(C(O)CNC[C@@H]2CC[C@H](c3cccc(Cl)c3)O2)ccc1O (relative stereo) [Example 5 (cis)]", "β adrenoceptors", 6.12),
    ("COc1cc([C@H]2CC[C@H](CNCC(O)c3ccc(O)c(CO)c3)O2)cc(OC)c1OC (relative stereo) [Example 2 (trans)]", "β adrenoceptors", 7.10),
]

====

- ASSAY_SYSTEM: β adrenoceptors
- ASSAY: radioligand binding studies in lung membrane (Table A, binding affinity)
Ki for assorted compounds

# COMPOUND, Ki / nM
records = [
    ("COc1ccc([C@H]2CC[C@H](CNCC(O)c3ccc(O)c(CO)c3)O2)cc1OC (relative stereo) [Example 8 (trans)]", 1050),
    ("OCc1cc(C(O)CNCC2CCC(c3ccccc3)O2)ccc1O (stereo not shown)", 410),
    ("OCc1cc(C(O)CNC[C@H]2CC[C@H](c3ccccc3Cl)O2)ccc1O (relative stereo) [Example 4 (trans)]", 400),
    ("CC(C)(C)NCC(O)c1ccc(O)c(CO)c1 (stereo not shown) [Salbutamol, reference compound]", 2500),
]

====

- Tested on: acetylcholine induced bronchoconstriction
- ASSAY: inhibition of acetylcholine induced bronchoconstriction, Konzett and Rossler method (Table B)
- Type: in vivo, Male Hartley Guinea Pigs
- EXPERIMENTAL_CONTEXT: Cavia porcellus, 0.25 h; 0.42 μmol/kg, IV; 15 mn; read-out: bronchoconstriction protection, score 15 mn
inhibition in vivo at 0.42 µmol/kg for assorted compounds
ATTRIBUTE_MEASURED: inhibition in vivo at 0.42 µmol/kg

# COMPOUND, REPORTED_VALUE
records = [
    ("COc1cc([C@H]2CC[C@H](CCCNCC(O)c3ccc(O)c(CO)c3)O2)cc(OC)c1OC (relative stereo) [Example 15 (trans)]", "50 to 75%"),
    ("OCc1cc(C(O)CNCC2CCC(c3ccncc3)O2)ccc1O (stereo not shown) [Example 12]", "50 to 75%"),
    ("COc1cc([C@H]2CC[C@H](CNCC(O)c3ccc(O)c(CO)c3)O2)cc(OC)c1OC (relative stereo) [Example 2 (trans)]", "> 75%"),
    ("CC(C)(C)NCC(O)c1ccc(O)c(CO)c1 (stereo not shown) [Salbutamol, reference compound]", "> 75%"),
]

====

- ASSAY_SYSTEM: β adrenoceptors
- ASSAY: radioligand binding studies in lung membrane (Table A, binding affinity)
Ki for assorted compounds

# COMPOUND, Ki, µM
rows = [
    ("COc1ccc([C@H]2CC[C@H](CNCC(O)c3ccc(O)c(CO)c3)O2)cc1 (relative stereo) [Example 9 (trans)]", 0.59),
    ("OCc1cc(C(O)CNC[C@@H]2CC[C@H](c3ccccc3Cl)O2)ccc1O (relative stereo) [Example 4 (cis)]", 0.347),
    ("OCc1cc(C(O)CNCC2CCC(c3ccncc3)O2)ccc1O (stereo not drawn) [Example 12]", 0.35),
    ("OCc1cc(C(O)CNCCCC2CCC(c3ccccc3Cl)O2)ccc1O (stereo not drawn) [Example 16]", 0.57),
    ("COc1ccc([C@H]2CC[C@@H](CNCC(O)c3ccc(O)c(CO)c3)O2)cc1 (relative stereo) [Example 9 (cis)]", 0.81),
    ("CCCC1CCC(CNCC(O)c2ccc(O)c(CO)c2)O1 (stereo not drawn) [Example 11]", 0.52),
    ("COc1cc([C@H]2CC[C@@H](CCNCC(O)c3ccc(O)c(CO)c3)O2)cc(OC)c1OC (relative stereo) [Example 14 (cis)]", 1.9),
    ("COc1cc([C@H]2CC[C@@H](CNCC(O)c3ccc(O)c(CO)c3)O2)cc(OC)c1OC (relative stereo) [Example 2 (cis)]", 0.41),
    ("COc1cc(C2CC(CNCC(O)c3ccc(O)c(CO)c3)CO2)cc(OC)c1OC (stereo not drawn) [Example 18]", 1.6),
]

====

- ASSAY_SYSTEM: β adrenoceptors
- ASSAY: radioligand binding studies in lung membrane (Table A, binding affinity)
pKi: −log10 of the molar value.
Please use YES whenever pKi is not below 6, and NO whenever it is.

# COMPOUND, ASSIGNED_CATEGORY
rows = [
    ("COc1cc([C@H]2CC[C@@H](CCCNCC(O)c3ccc(O)c(CO)c3)O2)cc(OC)c1OC (relative stereo) [Example 15 (cis)]", "NO"),
    ("COc1cc(C2CCC(CNCC(O)c3ccc(O)c(CO)c3)O2)cc(OC)c1OC (single isomer, unassigned) [Example 2 (trans) (-)]", "YES"),
    ("COc1ccc([C@H]2CC[C@H](CNCC(O)c3ccc(O)c(CO)c3)O2)c(OC)c1OC (relative stereo) [Example 3 (trans)]", "NO"),
]

====

pKi for assorted compounds
- ASSAY_SYSTEM: β adrenoceptors
- ASSAY: radioligand binding studies in lung membrane (Table A, binding affinity)
pKi: −log10 of the molar value.

# COMPOUND, pKi
records = [
    ("COc1cc([C@H]2CC[C@H](CCCNCC(O)c3ccc(O)c(CO)c3)O2)cc(OC)c1OC (relative stereo) [Example 15 (trans)]", 6.12),
    ("OCc1cc(C(O)CNC[C@H]2CC[C@H](c3cccc(Cl)c3)O2)ccc1O (relative stereo) [Example 5 (trans)]", 6.12),
    ("COc1ccc([C@H]2CC[C@@H](CNCC(O)c3ccc(O)c(CO)c3)O2)cc1OC (relative stereo) [Example 8 (cis)]", 5.96),
]
